# Tested on: CAOV3
# ASSAY_TEXT: Primary qHTS to identify gynecologic anti-cancer compounds using libraries of approved drugs and bioactive compounds (AID 1345084); further: on the % scale 0 is the no-effect control and ±100 the full control effect; nearly all actives have a fitted effect of over 55% in size
# APPLIED_CONDITIONS: Gynecologic cancer cell panel viability, ATPlite luminescence, 48 h; series mostly up to 57.5 µM
Inconclusive results are not listed. Active and inactive are the calls of the source. The call rests on the fitted dose curve; in most records, active means well fitted cell-killing curve with a large enough effect; inconclusive means small, poorly fitted or top-dose-only effect, or effect the other way; inactive means flat fitted curve, though single readings scatter.
MEASURE_NAME: activity change, negative = cytotoxicity

Input line: Provide the reported activity change, negative = cytotoxicity (system: CAOV3) for NC1=NC2(c3cc(NC(=O)c4ccc(F)cn4)ccc3F)COCC2CS1 (stereo unspecified)
Output line: inactive

Input line: Provide the reported activity change, negative = cytotoxicity (system: CAOV3) for C/C=C(\C)C(=O)OC[C@H]1O[C@@H](O[C@H]2[C@@H](O[C@H]3O[C@H](CO)[C@@H](O)[C@H](O)[C@H]3O[C@@H]3O[C@H](CO)[C@@H](O)[C@H](O)[C@H]3O)O[C@H](COC(=O)/C(C)=C/C)[C@@H](O)[C@@H]2O)[C@H](O)[C@@H](O)[C@@H]1O
Output line: 13.6% [at 11.6 µM] (inactive)

Input line: Provide the reported activity change, negative = cytotoxicity (system: CAOV3) for CC(=O)c1ccc(O[C@@H]2O[C@H](CO[C@@H]3OC[C@@H](O)[C@H](O)[C@H]3O)[C@@H](O)[C@H](O)[C@H]2O)cc1
Output line: inactive

Input line: Provide the reported activity change, negative = cytotoxicity (system: CAOV3) for O=C(O)Cc1cn([C@@H]2O[C@H](CO)[C@@H](O)[C@H](O)[C@H]2O[C@@H]2O[C@H](CO)[C@@H](O)[C@H](O)[C@H]2O)c2ccccc12
Output line: inactive

Input line: Provide the reported activity change, negative = cytotoxicity (system: CAOV3) for CC(CC(C)O[C@@H]1O[C@H](CO)[C@@H](O)[C@H](O)[C@H]1O)OC(=O)/C=C/c1ccc(O)cc1 (stereo partly specified)
Output line: inactive

Then this compound:
Input line: Provide the reported activity change, negative = cytotoxicity (system: CAOV3) for C/C=C/C=C/C=C/C(=O)O[C@@H]1C=C(CO)[C@](O)(CO)[C@@]2(C)CCCC(C)(C)[C@H]12
Output line: inactive

---

# Tested on: Zika virus NS2B-NS3 protease (linked construct)
# ASSAY_TEXT: Primary screen NINDS Rhodamine qHTS for Zika virus inhibitors (AID 1347160); further: nearly all actives have a fitted effect of over 55% in size
# APPLIED_CONDITIONS: purified NS2B-NS3 protease, Rhodamine110 substrate fluorescence; series mostly up to 33.1 µM
Records with an inconclusive call do not appear. Activity calls are given as the source filed them. The call rests on the fitted dose curve; in most records, active means well fitted inhibition curve with a large enough effect; inconclusive means small, poorly fitted or top-dose-only effect; inactive means no such curve, though single readings can be large or run the other way.
Respond only with the outcome that fits, drawn from active, inactive

Input line: // outcome(item) with item = C/C=C/C=C/C=C/C(=O)O[C@@H]1[C@@H](OC)C2=C(C(=O)N(C(CCC(=O)O)C(=O)O)C2)[C@@]2(C)CCCC(C)(C)[C@H]12 (some centres not stated)
Output line: active

Input line: // outcome(item) with item = Cc1cccc(-c2nn3c(c2-c2ccnc4ccc(C(N)=O)cc24)CCC3)n1
Output line: inactive

Input line: // outcome(item) with item = C/C=C/C1OC2=C(C(=O)OC2(C)O)C(O)C1O (configuration not stated)
Output line: inactive

Input line: // outcome(item) with item = CC1=CC[C@@]2(C)CC[C@@](O)(C(C)C)[C@@H]2[C@@H](O)C1
Output line: inactive

Input line: // outcome(item) with item = CNc1nc(Nc2cn(C(C)(C)C#N)nc2C)ncc1C(F)(F)F
Output line: inactive

Input line: // outcome(item) with item = CC(C)=CCC[C@](C)(O[C@@H]1O[C@H](CO)[C@@H](O)[C@H](O)[C@H]1O)[C@H]1CC[C@]2(C)[C@@H]1[C@H](O)CC1[C@@]3(C)CC[C@H](O)C(C)(C)C3[C@@H](O[C@@H]3O[C@H](CO)[C@@H](O)[C@H](O)[C@H]3O[C@@H]3O[C@@H](C)[C@H](O)[C@@H](O)[C@H]3O)C[C@]12C (some centres not stated)
Output line: inactive

Input line: // outcome(item) with item = C=C(CO)C(=O)O[C@H]1C[C@@]23O[C@@H]2CC/C(=C/[C@H]2OC(=O)C(=C)[C@H]12)CO[C@H]3O
Output line: inactive

---

# Test system: CAOV3
# ASSAY_TEXT: Primary qHTS to identify gynecologic anti-cancer compounds using libraries of approved drugs and bioactive compounds (AID 1345084); further: on the % scale 0 is the no-effect control and ±100 the full control effect; nearly all actives have a fitted effect of over 55% in size
# APPLIED_CONDITIONS: Gynecologic cancer cell panel viability, ATPlite luminescence, 48 h; series mostly up to 57.5 µM
Results filed as inconclusive are left out. The source made the active and inactive calls. Calls follow the shape of the dose curve; as a rule, active = well fitted cell-killing curve with a large enough effect; inconclusive = small, poorly fitted or top-dose-only effect, or effect the other way; inactive = flat fitted curve, though single readings scatter.
MEASURE_NAME: activity change, negative = cytotoxicity

Input line: Provide the reported activity change, negative = cytotoxicity (system: CAOV3) for CC1CCC2(C(=O)O)CCC3(C)C(=CCC4C5(C)C[C@@H](O)[C@@H](O)C(C)(CO)C5CCC43C)C2C1(C)O (some centres undefined)
Output line: inactive

Input line: Provide the reported activity change, negative = cytotoxicity (system: CAOV3) for COc1ccc(CC(=O)NCc2ccccc2-c2ccccc2C(=O)NCCc2cccnc2)cc1
Output line: inactive

Input line: Provide the reported activity change, negative = cytotoxicity (system: CAOV3) for COc1cc(Nc2ccc([N+](=O)[O-])cc2C(=O)O)cc2ccccc12
Output line: inactive

Input line: Provide the reported activity change, negative = cytotoxicity (system: CAOV3) for Cc1c(O)cc2c(c1O)COC1(O)CCCOC21 (centres undefined)
Output line: inactive

Input line: Provide the reported activity change, negative = cytotoxicity (system: CAOV3) for OC[C@H]1O[C@@H](OCCc2ccccc2)[C@H](O)[C@@H](O)[C@@H]1O
Output line: inactive

Input line: Provide the reported activity change, negative = cytotoxicity (system: CAOV3) for CC1=CC23[C@H](C=C(C(=O)O)[C@@H]2COC(=O)[C@]3(O)CO)[C@@H]1C (some centres undefined)
Output line: inactive

---
Input line: Provide the reported activity change, negative = cytotoxicity (system: CAOV3) for COc1ccc(/C=C/C(=O)O[C@@H]2[C@@H](O)[C@@H](O)[C@H](O[C@H]3[C@@H]4C=CO[C@@H](O[C@@H]5O[C@H](CO)[C@@H](O)[C@H](O)[C@H]5O)[C@@H]4[C@@]4(CO)O[C@@H]34)O[C@H]2C)cc1
Output line: inactive

Input line: Provide the reported activity change, negative = cytotoxicity (system: CAOV3) for CCC/C=C1\OC(=O)C2=C1CCC(O)C2O (centres undefined)
Output line: inactive

Input line: Provide the reported activity change, negative = cytotoxicity (system: CAOV3) for C=C(CCO)C(=O)OCC1OCC(OC(=O)C(=C)CCO[C@@H]2O[C@H](CO)[C@@H](O)[C@H](O)[C@H]2O)C(O)C1O (some centres undefined)
Output line: inactive

---

# System: CRL-7250
# ASSAY_TEXT: Cytotoxic Profiling of Annotated Libraries Using Quantitative High-Throughput Screening (AID 1296008); further: on the % scale 0 is the no-effect control and ±100 the full control effect; nearly all actives have a fitted effect of over 60% in size
# APPLIED_CONDITIONS: Five cell lines viability, CellTiter-Glo ATP luminescence, 48-72 h; hits give low values
Results filed as inconclusive are left out.
MEASURE_NAME: max response (%)
Write the number in % without appending the unit.

Input line: Recall and state the measured max response for CC(C)=CCC[C@@](C)(O)[C@H]1CC[C@]2(C)[C@@H]1[C@H](O)CC1[C@@]3(C)CC[C@H](O[C@@H]4O[C@H](CO)[C@@H](O)[C@H](O)[C@H]4O[C@@H]4O[C@H](CO)[C@@H](O)[C@H](O)[C@H]4O)C(C)(C)[C@@H]3CC[C@]12C (some centres not stated) .
Output line: 4.67

Input line: Recall and state the measured max response for C[C@@H](NC(=O)c1cc(C(=O)N[C@@H](Cc2ccccc2)[C@H](O)CNC2CC2)cc(N(C)S(C)(=O)=O)c1)c1ccccc1 .
Output line: 2.97

Input line: Recall and state the measured max response for CNC(=O)c1ccc2c(c1)CCO[C@H]2CCN1CCN(c2ccc(C(N)=O)cc2)CC1 .
Output line: 0.998

Input line: Recall and state the measured max response for CC(C)(O)C1CC=C(C(=O)OC[C@H]2O[C@@H](OC(=O)C3=CCC(C(C)(C)O)CC3)[C@H](O)[C@@H](O)[C@@H]2O)CC1 (some centres not stated) .
Output line: 3.51

Input line: Recall and state the measured max response for O=C1C[C@@]2(C(=O)N1)C(=O)N(Cc1ccc(Br)cc1F)C(=O)c1cccn12 .
Output line: -0.124

Input line: Recall and state the measured max response for CC1=CC(=O)CC(C)(C)C1/C=C/C(C)OC1OC(COC2OCC(O)C(O)C2O)C(O)C(O)C1O (configuration not stated) .
Output line: 0.665

Input line: Recall and state the measured max response for CC(NC(=O)c1ccccc1N)C(=O)O (configuration not stated) .
Output line: 2.02

---

# System: Tov-21-G
# ASSAY_TEXT: Primary qHTS to identify gynecologic anti-cancer compounds using libraries of approved drugs and bioactive compounds (AID 1345084); further: on the % scale 0 is the no-effect control and ±100 the full control effect; nearly all actives have a fitted effect of over 55% in size
# APPLIED_CONDITIONS: Gynecologic cancer cell panel viability, ATPlite luminescence, 48 h; series mostly up to 57.5 µM
Results filed as inconclusive are left out. Calls of active or inactive are those of the source. Calls come from the whole dose curve; as a rule, active = well fitted cell-killing curve with a large enough effect; inconclusive = small, poorly fitted or top-dose-only effect, or effect the other way; inactive = flat fitted curve, though single readings scatter.
MEASURE_NAME: activity change, negative = cytotoxicity

Worked examples, 5 molecules total:
Input line: Provide the reported activity change, negative = cytotoxicity (system: Tov-21-G) for CC(C)(O)C1OC1C1=CC(=O)C2(C)OC2C1O (centres undefined)
Output line: inactive

Input line: Provide the reported activity change, negative = cytotoxicity (system: Tov-21-G) for C=C(C(=O)OC)[C@]12O[C@@](C)(CC[C@@]3(O)/C(=C\C)C(=O)O[C@]3(C)C[C@@H]1OC(=O)C(CO)CN1CCCC1C(=O)O)CC2=O (some centres undefined)
Output line: inactive

Input line: Provide the reported activity change, negative = cytotoxicity (system: Tov-21-G) for CC(=O)OC1C(CO)OC(O[C@H]2[C@H](OC(=O)[C@]34CCC(C)(C)C[C@H]3C3=CCC5[C@@]6(C)CC[C@H](O[C@@H]7O[C@H](C(=O)O)[C@@H](O)[C@H](O[C@@H]8OC[C@@H](O)[C@H](O)[C@H]8O)[C@H]7O[C@@H]7O[C@H](CO)[C@H](O)[C@H](O)[C@H]7O)[C@@](C)(C=O)C6CC[C@@]5(C)[C@]3(C)C[C@H]4O)O[C@H](C)[C@H](OC3OC(C)C(OC4OCC(O)C(O)C4O)C(O)C3O)[C@@H]2O)C(O)C1O (some centres undefined)
Output line: 2.01% [at 6.55 µM] (inactive)

Input line: Provide the reported activity change, negative = cytotoxicity (system: Tov-21-G) for COc1cc(-c2ccc(O)cc2)c(OC)c(O)c1C1=CC(=O)OC1CC(=O)O (centres undefined)
Output line: inactive

Input line: Provide the reported activity change, negative = cytotoxicity (system: Tov-21-G) for O=C(OC[C@H]1O[C@H](O[C@H]2CO[C@H](CO)[C@@H](O)[C@@H]2O)[C@H](O)[C@@H](O)[C@H]1O)c1ccccc1
Output line: inactive

---
Input line: Provide the reported activity change, negative = cytotoxicity (system: Tov-21-G) for O=C(O)CC(CCc1ccccc1)OC1OC(CO)C(O)C(O)C1O (centres undefined)
Output line: inactive

Input line: Provide the reported activity change, negative = cytotoxicity (system: Tov-21-G) for CC1=C[C@H]2[C@@H](CC1=O)[C@H](C)C[C@H](O)[C@H]2C(C)C
Output line: inactive

Input line: Provide the reported activity change, negative = cytotoxicity (system: Tov-21-G) for CC1(CO)CC(O)C2(C)CCC3(C)C(=CCC4C5(C=O)CCC(OC6OC(C(=O)O)C(O)C(O)C6OC6OC(C(=O)O)C(O)C(O)C6O)C(C)(C)C5CCC43C)C2C1 (centres undefined)
Output line: 10.3% [at 11.6 µM] (inactive)

Input line: Provide the reported activity change, negative = cytotoxicity (system: Tov-21-G) for CC(NC(=O)c1ccccc1N)C(=O)O (centres undefined)
Output line: inactive
